Test system: HEK293T
Experiment: median enrichment of reporter reads in eGFP-reduced (low/intermediate) vs eGFP-high sorted cells (eGFP-extension fusion abundance) (ratio); higher = stronger loss of eGFP-fusion protein abundance (more destabilising extension)
Reported median enrichment values for a set of substances
# output: bare number, no unit

The cases that follow already have their median enrichment on record.
LKILVLLNYLI [TIPARP]	10.8
RDRALRCQGENPSSNPGYLETEKLEF [ITLN2]	0.166
YEEVSATSPPEPAVIFTAPAHLSPTCSFDPWTWYTSMWSCWARGVLCAVNSVGSCSGVGARFLPPWAEGPFPLVLCPHPPPFS [KLHDC3]	5.82
GPWDTAFSFARLSACRPGGEPGPANESLVYLGCNSLKVQSFGLQSCPGPGSPGHCCSPRPWALVFLQHHTCCPFSISVCVKGD [MYO1F]	5.6
GISVSSLISGIFVDKIRRNSCNF [KATNAL1]	2.39

QUERY: Give median enrichment for YNLLLIIISEIISGSPWTTS [ZIC5]
RESULT: 5.16

QUERY: Give the value of median enrichment reported for the following: GAHPKYACHLRPQAGHTGQPACRQDLPASSSQYSLQRLKCEAPAPPSALQPTGPGRTCPLSVSPSRVPRWRPLSTG [PAK6]
RESULT: 3.28

QUERY: Please give the documented median enrichment of LQCTIFSHLYYFFSACIT [HAO1]
RESULT: 1.93

QUERY: Report measured median enrichment; entry is KFRSPHFSAPRMVLFIFHHL [SLC43A3]
RESULT: 9.56

QUERY: For the substance YSCVVSLLEIELA [DGKB] , report median enrichment.
RESULT: 7.27

---

Tested on: HEK293T
Experiment: median enrichment of reporter reads in eGFP-reduced (low/intermediate) vs eGFP-high sorted cells (eGFP-extension fusion abundance) (ratio); higher = stronger loss of eGFP-fusion protein abundance (more destabilising extension)
property: median enrichment
The answer should be written as a number, with no unit following it.

WTYVLC [OR2L5]	7.99
RGGMGFTDMVLIH [GABRG2]	7.24
LHTELFIDTPHDCISRTHLLIILDPRETITSPSRQWRQIKISAEKEGHVEPQKHFYSG [SNTG1]	9

QUERY: Write down median enrichment measured for item WAPGTAPHCQLPLLGGPGRRVPPSPCQGPGDPLPGCLRLLLRRGNAKKEKEKPRARPLPPAVHCAASSVPGLTVPLSSAPARQ [NRXN2]
RESULT: 6.68

QUERY: Return the recorded median enrichment value; entry: KGPEPGWGISAGQRRRLSQLFPDIQGHCSLLPSRTSLLPPTMAGGEQVSQKHPVPRMVLCACPSLLGLPFPLLREDVSLLTCT [KIRREL1]
RESULT: 7.38

QUERY: Give recorded median enrichment. SALTHAHAPLTLKRIHNSLEKHPHVCCRTHSSQLRPIPVTTASPPTPVTTASPPTPVTTASPPTALSPRPMSACPRAQDFLTG [SSH3]
RESULT: 2.09

QUERY: Quickly give me recorded median enrichment for LPMTLSWGPPARPGTFLPNPQTHDSLPHRLPQRPPTHFILSGHPSDLDPPVRAFKAPNSGTRSAPLPRPRAGNFSLPDPALLF [SCRT2]
RESULT: 6.07

QUERY: Input RTPNTIFAIQPQAMGTAFLPRGPGRPQRLLQARTLVHYTPCLGAEILQQKDAIFFVSFFSIFFSKESIFQYVECVSNAMKLKY [NFYC] , output reported median enrichment.
RESULT: 15.8

QUERY: Quickly give me recorded median enrichment for LSGLCT [LCE1A]
RESULT: 0.479

QUERY: Read the entry GHPQDTPMWLLDNPRAAKSCFSSLAPQVLQDRALKATPNEFSGFRLWLQPNRTHFEHPDCIFAFRKLE [C5orf46] and write its reported median enrichment.
RESULT: 3.29

QUERY: Return median enrichment for the following substance: RYGWYSLHI [WASHC4]
RESULT: 8.03

---

# median enrichment annotations
System: HEK293T
Experiment: median enrichment of reporter reads in eGFP-reduced (low/intermediate) vs eGFP-high sorted cells (eGFP-extension fusion abundance) (ratio); higher = stronger loss of eGFP-fusion protein abundance (more destabilising extension)
Reply briefly: the number, and no unit.

Before answering, review these 8 worked examples.
ELLGQRLKPQDPCCPSRSFFLESQGKPFRAAPPSGQKLK [ALG1]	3.82
LQNPNLELPMLLSYKHTDSGYS [ATP11C]	1.23
CGAEHHPSH [PPM1J]	0.355
WLSLRKGRRRGAQGHLLP	28.3
LSQTSFYIREPFQYSESETPA [ZNF12]	3.12
EPVKNHAKAKTRSAERAHGSSRLVGDQAHLICTNCSTC [OCSTAMP]	3.35
KRASTSEWPHLCPRC [NUMA1]	0.399
SMLLPGLQKLHGHSSVIGLSLITKITAQDHLPEKHPLA [PLCB1]	19.1

QUERY: Provide only the value of recorded median enrichment for WPSSLPPKPTTQC [KPNA7]
RESULT: 0.282

---

Tested on: HEK293T
Assay: median enrichment of reporter reads in eGFP-reduced (low/intermediate) vs eGFP-high sorted cells (eGFP-extension fusion abundance) (ratio); higher = stronger loss of eGFP-fusion protein abundance (more destabilising extension)
Please note: Yes applies when median enrichment is 4 or greater, and No applies otherwise.

Solved cases (6 shown):
RFHRSAFGHLLWWVLVTHFRLRFDGLNLYSLESMSCVYSTIRNLILFLLLFLQKQKLILKSIIMGWGGGCPQDMQDFCRGQHR [SETD4]	Yes
SGWGWTNNQARAEGFMERPLGDPR [S1PR2]	No
YRNSNPGVPV [INPP1]	No
KKPPAQLETC [METTL16]	No
YINKIRRGSETEKEKAKDWFVCLISFC [NR2F2]	Yes
LGSWRHWRGQEG [Degron KLHDC3]	Yes

QUERY: Hello, I need to know if SDSESN [MCM6] has measured median enrichment not below 4. Thanks!
RESULT: No

QUERY: Has PPPPPPP [Pro07] a recorded median enrichment greater than or equal to 4?
RESULT: No

---

System: HEK293T
Assay: median enrichment of reporter reads in eGFP-reduced (low/intermediate) vs eGFP-high sorted cells (eGFP-extension fusion abundance) (ratio); higher = stronger loss of eGFP-fusion protein abundance (more destabilising extension)
Each entry belongs to exactly one class, chosen by where its median enrichment falls: range 1 = under 4, range 2 = from 4 up to 10, range 3 = 10 and over

QFKELKIHMHEP [WDR41]	range 1
RRLSISRDMVLTQQFPVMAKCSI [IL13RA2]	range 2
LLEWIYDVPLRRSISATILI [HMGCLL1]	range 3

QUERY: # bin lookup: classify QSTTALSS [GALNT4] by its median enrichment
RESULT: range 1

QUERY: Sort into band: QESSSRGTEDWGQEESGTQPSCPLTPGRPSPHPRVPQSYPLSACVARPDKHLQMAAAPTWDLPRRLEQKGLSLGWCFSSRVLG [TMEM141]
RESULT: range 1

QUERY: Each sequence maps to one class by median enrichment. Which class for SLYGAICPPSPSRTLEGTSAPAGLGPPLSLLQASWCLHTSGSWPRKSQQEQGMGEGRCHTTWR [CISH] ?
RESULT: range 2

QUERY: Input GRCSDASAGAGTPNPWLQNRDPHPDRGSSAFEGFQAGLCGTEAQRGPGTWQRWGREEIQLPSLLPLLLQVPSNQELYILLVPQ [CCDC86] ; output its category
RESULT: range 2

QUERY: In plain terms, what class is YIMYYPDLVGKVLS [OPRM1] ?
RESULT: range 3

QUERY: Looking at LNAFLASSAGGLSLGRGDSTHHWNFADRKRFLFSVL [KMT2C] , which class would you pick?
RESULT: range 3

QUERY: Hey, which category is QTSLHFILF [FABP1] in, do you know?
RESULT: range 3

QUERY: Class label required: WGQCLPAPPLASSSAPRVPSVDPIRPAMASYSKMV [ACO2]
RESULT: range 1

---

Test system: HEK293T;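 further: lentiviral eGFP-IRES-mCherry reporter pool sorted by FACS 96 h post-transduction, gated on mCherry-high cells, Illumina read counts normalized per million, median across four biological replicates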
Experiment: median enrichment of reporter reads in eGFP-reduced (low/intermediate) vs eGFP-high sorted cells (eGFP-extension fusion abundance) (ratio); higher = stronger loss of eGFP-fusion protein abundance (more destabilising extension)
// values below are reported median enrichment
Just the number, please, no unit after it.

SQPSPPSPGAAWGGKSCSLRRAQLAGAVPGHGRFPVTHSLRKPGVIGHLAGQRSWGWF [CLCN6]	3.27

QUERY: Note down median enrichment recorded for RTSRPTTLRKIEW [HCAR1]
RESULT: 1.94

QUERY: Please give measured median enrichment of the following entry: LNFNKTFKITEIFKI [LIAS]
RESULT: 9.41

QUERY: Give recorded median enrichment. SKILVLLNYLI [TIPARP]
RESULT: 5.53

// provenance: the supplement of paper PMC11502859
